Reported GI50 values for the following compounds.
System: SK-MEL-28 melanoma
Assay: NCI tumour cell line growth inhibition, 48 h

[Q] Fill in the blank: the reported GI50 of COc1c2ccccc2c(O)c2c(=O)ccn(C)c12 is ____.
[A] 21.2 µM

[Q] Fill in the blank: the reported GI50 of Cc1cc2c(cc1Cl)SC(C(=O)c1ccc(Cl)c(Cl)c1)NS2(=O)=O (centres undefined) is ____.
[A] 30.4 µM

[Q] Fill in the blank: the reported GI50 of Cc1cn2c(/C=C3/C(=O)Nc4ccc(Cl)cc43)c(C)nc2s1 is ____.
[A] 17 µM

[Q] Fill in the blank: the reported GI50 of CC(C)[C@H](C(=O)O[C@@H]1/C=C/C(=O)O[C@@H](C)CCC/C=C/[C@@H]2C[C@H](O)C[C@H]21)N(C)C is ____.
[A] 5.01 µM
